Hey, just so you know, these numbers are from patent US20180085455A1.

TARGET_OR_TEST_SYSTEM: T1, recombinant human ErbB3 protein (R&D systems) (human, UniProt P21860 20-643)
T1 construct: Bought recombinant protein; also called HER3
ASSAY_NOTES: BLI (Octet QK384), human ErbB3 immobilized on AR2G sensor, IgG at 12.5-50 nM
REPORTED_PROPERTY: kon (M⁻¹ s⁻¹)
Kindly provide the numeric value in M⁻¹ s⁻¹ only, without the unit symbol.

>  <BINDER>
451M7 (antibody, V domains shown, IgG1 (Selexis 085 vector, CHO)) VH: EVQLLESGGGLVQPGGSLRLSCAASGFTFSYYDMSWVRQAPGKGLEWVSAIYYDSGSIYYADSAKGRFTISRDNSKNTLYLQMNSLRAEDTAVYYCAKDRLFESDSTFDYWGQGTLVTVSS VL: QSVLTQPPSASGTPGQRVTISCSGSPSNIGNNSVTWYQQLPGTAPKLLIYYDSHRPSGVPDRFSGSKSGTSASLAISGLRSEDEADYYCGSWDASLNGYVFGGGTKLTVLG

>  <kon (M⁻¹ s⁻¹)>
1.35e+06

$$$$

Item 442M11 (antibody, V domains shown, IgG1 (Selexis 085 vector, CHO)) VH: EVQLLESGGGLVQPGGSLRLSCAASGFTFSDYDMSWVRQAPGKGLEWVSTIEPDYGSTLYADSVQGRFTISRDNSKNTLYLQMNSLRAEDTAVYYCAKDLHMGPEGPFDYWGQGTLVTVSS VL: QSVLTQPPSASGTPGQRVTISCSGSSSNIGSNSVSWYQQLPGTAPKLLIYSDNHRPSGVPDRFSGSKSGTSASLAISGLRSEDEADYYCHAWDSSLSGDFFGGGTKLTVLG has what recorded kon?
1.49e+06

Item 451M4 (antibody, V domains shown, IgG1 (Selexis 085 vector, CHO)) VH: EVQLLESGGGLVQPGGSLRLSCAASGFTFSYYDMSWVRQAPGKGLEWVSAIYYDSGSIYYADSAKGRFTISRDNSKNTLYLQMNSLRAEDTAVYYCAKDRLFASDSTFDYWGQGTLVTVSS VL: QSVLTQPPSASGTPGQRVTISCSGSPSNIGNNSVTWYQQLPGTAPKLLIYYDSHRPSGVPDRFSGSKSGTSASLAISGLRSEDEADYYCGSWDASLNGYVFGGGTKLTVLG has what recorded kon?
2.01e+06

Item 451M3 (antibody, V domains shown, IgG1 (Selexis 085 vector, CHO)) VH: EVQLLESGGGLVQPGGSLRLSCAASGFTFSHYDMSWVRQAPGKGLEWVSAIYYDSGSIYYADSAKGRFTISRDNSKNTLYLQMNSLRAEDTAVYYCAKDRLFASDSTFDYWGQGTLVTVSS VL: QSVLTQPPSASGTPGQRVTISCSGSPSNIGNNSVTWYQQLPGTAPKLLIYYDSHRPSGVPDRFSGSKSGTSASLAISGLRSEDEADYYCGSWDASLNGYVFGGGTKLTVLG has what recorded kon?
1.87e+06

Item 442S6 (antibody, V domains shown, IgG1 (Selexis 085 vector, CHO)) VH: EVQLLESGGGLVQPGGSLRLSCAASGFTFSDYDMSWVRQAPGKGLEWVSSIYPDSGSTDYADSVQGRFTISRDNSKNTLYLQMNSLRAEDTAVYYCAKDRHMWPEGPFDYWGQGTLVTVSS VL: QSVLTQPPSASGTPGQRVTISCSGSSSNIGSNSGSWYQQLPGTAPKLLIYADNWRPSGVPDRFSGSKSGTSASLAISGLRSEDEADYYCAAWDSSLSGYVFGGGTKLTVLG has what recorded kon?
872000

Item 442S9 (antibody, V domains shown, IgG1 (Selexis 085 vector, CHO)) VH: EVQLLESGGGLVQPGGSLRLSCAASGFTFSDYDMSWVRQAPGKGLEWVSSIYPDSGSTYYADSVQGRFTISRDNSKNTLYLQMNSLRAEDTAVYYCAKDRHMWPEGPFDYWGQGTLVTVSS VL: QSVLTQPPSASGTPGQRVTISCSGSSSNIGSNSGSWYQQLPGTAPKLLIYADNHRPSGVPDRFSGSKSGTSASLAISGLRSEDEADYYCAAWDSSLSGYVFGGGTKLTVLG has what recorded kon?
821000

Item 472S4 (antibody, V domains shown, IgG1 (Selexis 085 vector, CHO)) VH: EVQLLESGGGLVQPGGSLRLSCAASGFTFSWYDIAWVRQAPGKGLEWVSGISYDGGNTYYADSVKGRFTISRDNSKNTLYLQMNSLRAEDTAVYYCARDPSWCLQDLCYYADGMDVWGQGTLVTVSS VL: QSVLTQPPSASGTPGQRVTISCSGSSSNIGSNSVSWYQQLPGTAPKLLIYADSNRPSGVPDRFSGSKSGTSASLAISGLRSEDEADYYCGSWDYSLSGYVFGGGTKLTVLG has what recorded kon?
1.15e+06

Item 472S2 (antibody, V domains shown, IgG1 (Selexis 085 vector, CHO)) VH: EVQLLESGGGLVQPGGSLRLSCAASGFTFSWYDLAWVRQAPGKGLEWVSGISYDGGNTYYADSVKGRFTISRDNSKNTLYLQMNSLRAEDTAVYYCARDPSWCLQDLCYYADGMDVWGQGTLVTVSS VL: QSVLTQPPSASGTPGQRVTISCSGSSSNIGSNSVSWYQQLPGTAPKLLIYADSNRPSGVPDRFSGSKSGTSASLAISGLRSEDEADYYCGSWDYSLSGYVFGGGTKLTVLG has what recorded kon?
1.07e+06

Item 442M10 (antibody, V domains shown, IgG1 (Selexis 085 vector, CHO)) VH: EVQLLESGGGLVQPGGSLRLSCAASGFTFSDYDMSWVRQAPGKGLEWVSSIYPDSGSTDYADSVQGRFTISRDNSKNTLYLQMNSLRAEDTAVYYCAKDLHMWPEGPFDYWGQGTLVTVSS VL: QSVLTQPPSASGTPGQRVTISCSGSSSNIGSNSVSWYQQLPGTAPKLLIYADNFRPSGVPDRFSGSKSGTSASLAISGLRSEDEADYYCAAWDSSLSGYVFGGGTKLTVLG has what recorded kon?
471000

Item 472S1 (antibody, V domains shown, IgG1 (Selexis 085 vector, CHO)) VH: EVQLLESGGGLVQPGGSLRLSCAASGFTFSWYDMTWVRQAPGKGLEWVSGISYDGGNTYYADSVKGRFTISRDNSKNTLYLQMNSLRAEDTAVYYCARDPSWCLQDLCYYADGMDVWGQGTLVTVSS VL: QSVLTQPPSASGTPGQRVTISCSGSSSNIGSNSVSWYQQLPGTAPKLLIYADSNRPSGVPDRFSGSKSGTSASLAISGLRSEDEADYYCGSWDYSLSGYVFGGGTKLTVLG has what recorded kon?
649000
